experiment: activity coefficient (dimensionless); of the first substance listed, at infinite dilution; xn = mol fraction of the nth substance listed; settings: 303.15 K; Liquid; Chromatography; x1 = 0
outcome measure: activity coefficient

>  <molecule>
CCCCCCC [heptane] + CC(CC(C)(C)C)CP(=O)([O-])CC(C)CC(C)(C)C.CCCCCCCCCCCCCC[P+](CCCCCC)(CCCCCC)CCCCCC

>  <activity coefficient>
0.77

$$$$
>  <molecule>
C1CCCCC1 [cyclohexane] + CC(CC(C)(C)C)CP(=O)([O-])CC(C)CC(C)(C)C.CCCCCCCCCCCCCC[P+](CCCCCC)(CCCCCC)CCCCCC

>  <activity coefficient>
0.51

$$$$
>  <molecule>
C#CCCCCC [1-heptyne] + CC(CC(C)(C)C)CP(=O)([O-])CC(C)CC(C)(C)C.CCCCCCCCCCCCCC[P+](CCCCCC)(CCCCCC)CCCCCC

>  <activity coefficient>
0.33

$$$$
>  <molecule>
C=CCCCC [hex-1-ene] + CC(CC(C)(C)C)CP(=O)([O-])CC(C)CC(C)(C)C.CCCCCCCCCCCCCC[P+](CCCCCC)(CCCCCC)CCCCCC

>  <activity coefficient>
0.63

$$$$
>  <molecule>
C1CCCC1 [cyclopentane] + CC(CC(C)(C)C)CP(=O)([O-])CC(C)CC(C)(C)C.CCCCCCCCCCCCCC[P+](CCCCCC)(CCCCCC)CCCCCC

>  <activity coefficient>
0.45

$$$$

I = C=CCCCCCC [oct-1-ene] + CC(CC(C)(C)C)CP(=O)([O-])CC(C)CC(C)(C)C.CCCCCCCCCCCCCC[P+](CCCCCC)(CCCCCC)CCCCCC
II = C#CCCCC [1-hexyne] + CC(CC(C)(C)C)CP(=O)([O-])CC(C)CC(C)(C)C.CCCCCCCCCCCCCC[P+](CCCCCC)(CCCCCC)CCCCCC
Which is greater in activity coefficient, the first item I or the second item II ? Give the chosen item's label as your response.
I
(I: 0.75, II: 0.38)

###

experiment: activity coefficient (dimensionless); of the first substance listed, at infinite dilution; xn = mol fraction of the nth substance listed; settings: 313.15 K; Liquid; Chromatography; x1 = 0
outcome measure: activity coefficient

Please review the entries below; each comes with its answer.
>  <molecule>
C1CCCC1 [cyclopentane] + CC(CC(C)(C)C)CP(=O)([O-])CC(C)CC(C)(C)C.CCCCCCCCCCCCCC[P+](CCCCCC)(CCCCCC)CCCCCC

>  <activity coefficient>
0.48

$$$$
>  <molecule>
C1CCCCC1 [cyclohexane] + CC(CC(C)(C)C)CP(=O)([O-])CC(C)CC(C)(C)C.CCCCCCCCCCCCCC[P+](CCCCCC)(CCCCCC)CCCCCC

>  <activity coefficient>
0.54

$$$$
>  <molecule>
CCCCC [pentane] + CC(CC(C)(C)C)CP(=O)([O-])CC(C)CC(C)(C)C.CCCCCCCCCCCCCC[P+](CCCCCC)(CCCCCC)CCCCCC

>  <activity coefficient>
0.7

$$$$
>  <molecule>
C=CCCC [1-pentene] + CC(CC(C)(C)C)CP(=O)([O-])CC(C)CC(C)(C)C.CCCCCCCCCCCCCC[P+](CCCCCC)(CCCCCC)CCCCCC

>  <activity coefficient>
0.62

$$$$
>  <molecule>
CCCCCC [hexane] + CC(CC(C)(C)C)CP(=O)([O-])CC(C)CC(C)(C)C.CCCCCCCCCCCCCC[P+](CCCCCC)(CCCCCC)CCCCCC

>  <activity coefficient>
0.73

$$$$

1 = CCCCCCC [heptane] + CC(CC(C)(C)C)CP(=O)([O-])CC(C)CC(C)(C)C.CCCCCCCCCCCCCC[P+](CCCCCC)(CCCCCC)CCCCCC
2 = C#CCCCC [1-hexyne] + CC(CC(C)(C)C)CP(=O)([O-])CC(C)CC(C)(C)C.CCCCCCCCCCCCCC[P+](CCCCCC)(CCCCCC)CCCCCC
I would appreciate it if you could say which entry, 1 or 2 , has the lower activity coefficient value. Give the chosen item's label as your response.
2
(2: 0.43, 1: 0.81)
